These entries and their values trace back to ChEMBL document CHEMBL1140599.

molecular target: Sodium-dependent serotonin transporter (Rattus norvegicus); assay: Displacement of [125I]RTI55 from SERT in rat brain synaptosomes
Sequence (P31652 whole entry): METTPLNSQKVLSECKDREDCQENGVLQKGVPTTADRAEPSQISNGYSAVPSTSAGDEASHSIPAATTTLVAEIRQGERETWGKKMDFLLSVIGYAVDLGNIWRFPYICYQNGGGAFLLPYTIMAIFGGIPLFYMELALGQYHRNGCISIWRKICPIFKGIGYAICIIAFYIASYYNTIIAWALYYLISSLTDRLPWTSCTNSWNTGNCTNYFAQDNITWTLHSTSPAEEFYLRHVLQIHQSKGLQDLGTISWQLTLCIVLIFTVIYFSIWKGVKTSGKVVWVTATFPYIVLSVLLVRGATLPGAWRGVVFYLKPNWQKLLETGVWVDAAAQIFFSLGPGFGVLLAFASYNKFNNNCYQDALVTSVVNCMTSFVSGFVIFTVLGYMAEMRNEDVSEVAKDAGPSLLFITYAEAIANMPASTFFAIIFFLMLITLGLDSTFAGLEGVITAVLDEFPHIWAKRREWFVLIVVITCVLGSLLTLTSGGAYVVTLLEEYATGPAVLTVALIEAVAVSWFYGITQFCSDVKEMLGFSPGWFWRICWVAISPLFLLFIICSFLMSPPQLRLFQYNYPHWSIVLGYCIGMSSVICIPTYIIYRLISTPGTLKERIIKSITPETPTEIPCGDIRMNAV
Reported values of pKi for individual entries
Would you please state pKi, meaning minus log10 of the concentration in mol/L, as a bare number?

Smiles Repr	Test Result
Fc1ccc(C(OCCC2CCN(C[C@H]3C[C@@H]3c3ccccc3)CC2)c2ccc(F)cc2)cc1	6.87
Fc1ccc(C(OCCC2CCN(Cc3cc4ccccc4s3)CC2)c2ccc(F)cc2)cc1	6.61
Fc1ccc(C(OCCN2CCN(Cc3cccc4ccccc34)CC2)c2ccc(F)cc2)cc1	6.61
Fc1ccc(C(OCCN2CCN(Cc3ccc4ccccc4n3)CC2)c2ccc(F)cc2)cc1	7.29

Next:
Exam item: Lookup: pKi / Sodium-dependent serotonin transporter (Rattus norvegicus) / Fc1ccc(C(OCCN2CCN(Cc3ccc4ncccc4c3)CC2)c2ccc(F)cc2)cc1
Marked response: 6.26
